The measured values listed here are drawn from paper PMC4145329.

tested on: SW480 cells; experiment: MTT anti-proliferative assay, SW480; assay type: cell-based, human; conditions: human, 72 h
assay_readout: Cytotoxicity IC50, SW480 (µg/mL)

                              record_smiles  target_under_test             assay_readout  units_label  number
0  CC(C)C[C@@H]1NC(=O)[C@H](CC(C)C)N(C)C(=O)[C@H](CC(C)C)NC(=O)[C@H](CC(C)C)N(C)C(=O)[C@@H](Cc2ccccc2)NC1=O        SW480 cells  Cytotoxicity IC50, SW480        µg/mL    5.75
1  CC(C)C[C@@H]1NC(=O)[C@@H](CC(C)C)N(C)C(=O)[C@H](CC(C)C)NC(=O)[C@@H](Cc2ccccc2)N(C)C(=O)[C@@H](CC(C)C)NC1=O        SW480 cells  Cytotoxicity IC50, SW480        µg/mL    8.60
2  CC(C)C[C@@H]1NC(=O)[C@@H](CC(C)C)N(C)C(=O)[C@H](CC(C)C)NC(=O)[C@@H](Cc2ccccc2)N(C)C(=O)[C@H](CC(C)C)NC1=O        SW480 cells  Cytotoxicity IC50, SW480        µg/mL   10.20
3  CC(C)C[C@@H]1NC(=O)[C@@H](CC(C)C)NC(=O)[C@@H](CC(C)C)N(C)C(=O)[C@@H](CC(C)C)NC(=O)[C@@H](Cc2ccccc2)N(C)C1=O        SW480 cells  Cytotoxicity IC50, SW480        µg/mL    5.10
4  CC(C)C[C@@H]1NC(=O)[C@H](CC(C)C)N(C)C(=O)[C@H](CC(C)C)NC(=O)[C@H](CC(C)C)N(C)C(=O)[C@H](Cc2ccccc2)NC1=O        SW480 cells  Cytotoxicity IC50, SW480        µg/mL   12.37

---

System: U87 cells
Assay: MTT anti-proliferative assay, U87
Assay type: cell-based, human
Details: human, 72 h
Method: All of the cells were incubated at 37 °C in a humidified atmosphere composed of 95% air and 5% CO2. The cell viability was determined by measuring the ability of cells to transform MTT (Genview, Houston, TX, USA) to a purple formazan dye. […] The color intensity of the formazan solution, which reflects the cell growth condition, was measured at 570 nm using a microplate spectrophotometer (SpectroAma™ 250, Winooski, VT, USA).
assay_readout: Cytotoxicity IC50, U87 (µg/mL)

>>> print(df.to_string())
                              record_smiles  target_under_test  value_modifier  number
0  CC(C)C[C@@H]1NC(=O)[C@@H](CC(C)C)NC(=O)[C@@H](CC(C)C)N(C)C(=O)[C@@H](CC(C)C)NC(=O)[C@@H](Cc2ccccc2)N(C)C1=O          U87 cells               =    1.85
1  CC(C)C[C@@H]1NC(=O)[C@H](CC(C)C)N(C)C(=O)[C@H](CC(C)C)NC(=O)[C@H](CC(C)C)N(C)C(=O)[C@H](Cc2ccccc2)NC1=O          U87 cells               >      40
2  CC(C)C[C@@H]1NC(=O)[C@@H](CC(C)C)N(C)C(=O)[C@H](CC(C)C)NC(=O)[C@@H](Cc2ccccc2)N(C)C(=O)[C@@H](CC(C)C)NC1=O          U87 cells               =    2.82
3  CC(C)C[C@@H]1NC(=O)[C@H](CC(C)C)N(C)C(=O)[C@H](CC(C)C)NC(=O)[C@H](CC(C)C)N(C)C(=O)[C@@H](Cc2ccccc2)NC1=O          U87 cells               >      40
4  CC(C)C[C@@H]1NC(=O)[C@@H](CC(C)C)N(C)C(=O)[C@H](CC(C)C)NC(=O)[C@@H](Cc2ccccc2)N(C)C(=O)[C@H](CC(C)C)NC1=O          U87 cells               =   20.16
